Measured EC50, listed per entry.
subject-of-test: T1, mesothelin (MSLN) (UniProt Q13421 296-580)
T1 construct: also called immobilized MSLN
experiment-summary: ELISA, MSLN coated on plate, IgG1 detected with anti-human IgG HRP
endpoint-name: EC50

[[record]]
binder = "CHS7 IgG (antibody, V domains shown) VH: EVQLVESGGGLVQPGGSLRLSCAASGFTIDKEAIHWVRQAPGKGLEWVASIYPHSGFTLYADSVKGRFTISADTSKNTAYLQMNSLRAEDTAVYYCARGRYWMDYWGQGTLVTVSS VL: DIQMTQSPSSLSASVGDRVTITCRASQDVEDGVAWYQQKPGKAPKLLIGIKDLLYSGVPSRFSGSGSGTDFTLTISSLQPEDFATYYCQQYYRWPSTFGQGTKVEIKR"
result = "10.3 ng/mL"

[[record]]
binder = "CHS8 IgG (antibody, V domains shown) VH: EVQLVESGGGLVQPGGSLRLSCAASGFTISKASIHWVRQAPGKGLEWVASIWPTKGFTTYADSVKGRFTISADTSKNTAYLQMNSLRAEDTAVYYCARGRYWLDYWGQGTLVTVSS VL: DIQMTQSPSSLSASVGDRVTITCRASQDVKEGVAWYQQKPGKAPKLLIDERERLYSGVPSRFSGSGSGTDFTLTISSLQPEDFATYYCQQYNTWPATFGQGTKVEIKR"
result = "5.05 ng/mL"

[[record]]
binder = "ALA12 IgG (antibody, V domains shown) VH: EVQLVESGGGLVQPGGSLRLSCAASGFTIGNWTIHWVRQAPGKGLEWVALIWPESGATLYADSVKGRFTISADTSKNTAYLQMNSLRAEDTAVYYCARGRYWMDYWGQGTLVTVSS VL: DIQMTQSPSSLSASVGDRVTITCRASQDVRDGVAWYQQKPGKAPKLLIDQMVRLYSGVPSRFSGSGSGTDFTLTISSLQPEDFATYYCQQYFNWPVTFGQGTKVEIKR"
result = "8.37 ng/mL"

[[record]]
binder = "CHS5 IgG (antibody, V domains shown, also called IgG1-CHS5) VH: EVQLVESGGGLVQPGGSLRLSCAASGFTITDRTIHWVRQAPGKGLEWVASIFPTKGVTTYADSVKGRFTISADTSKNTAYLQMNSLRAEDTAVYYCARGRYWMDYWGQGTLVTVSS VL: DIQMTQSPSSLSASVGDRVTITCRASQDVKEGVAWYQQKPGKAPKLLIDQSHRLYSGVPSRFSGSGSGTDFTLTISSLQPEDFATYYCQQYYAWPSTFGQGTKVEIKR"
result = "4.67 ng/mL"

